- measurement.description: Oral bioavailability in mouse
- Type: ADME, organism-based
- condition.context: in vivo
observation.type: bioavailability (%)

In [3]: df
Out[3]:
                           substance_smiles  observation_type  endpoint_result
0  CC(C)OC(=O)N1CCC(Oc2ncnc3c2cnn3-c2ccc(S(C)(=O)=O)cc2F)CC1   bioavailability               44

###

Reported EC50 values for a set of compounds
- target.under.test: UniProt Q8TDV5
- Sequence (Q8TDV5 whole entry): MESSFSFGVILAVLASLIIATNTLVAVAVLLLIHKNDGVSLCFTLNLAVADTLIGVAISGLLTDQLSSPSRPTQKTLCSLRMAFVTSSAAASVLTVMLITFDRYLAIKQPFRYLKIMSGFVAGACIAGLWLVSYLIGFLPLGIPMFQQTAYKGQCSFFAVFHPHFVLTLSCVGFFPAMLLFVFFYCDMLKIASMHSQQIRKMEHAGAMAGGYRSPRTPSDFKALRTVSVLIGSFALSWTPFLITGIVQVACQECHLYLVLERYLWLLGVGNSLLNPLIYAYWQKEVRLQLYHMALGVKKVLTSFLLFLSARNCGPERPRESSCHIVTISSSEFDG
- measurement.description: Agonist activity at human GPR119 by melanophore assay
observation.type: EC50

In [3]: df
Out[3]:
                           substance_smiles  observation_type  endpoint_result
0  CN(C)CCOC(=O)N1CCC(Oc2ncnc3c2cnn3-c2ccc(S(C)(=O)=O)cc2)CC1              EC50       > 10000 nM
1  CC(C)(C)OC(=O)N1CCC(Oc2ncnc3c2ncn3-c2ccc(S(C)(=O)=O)cc2)CC1              EC50          33.4 nM
2  CC(C)(C)OC(=O)N1CCC(Cc2ncnc3c2cnn3-c2ccc(S(C)(=O)=O)cc2)CC1              EC50           7.3 nM
3  CCN(CC1CCN(C(=O)OC(C)C)CC1)c1ncnc2c1cnn2-c1ccc(S(C)(=O)=O)cc1F              EC50           3.4 nM
4  CC(C)(C)OC(=O)N1CCC(Sc2ncnc3c2cnn3-c2ccc(S(C)(=O)=O)cc2F)CC1              EC50           0.5 nM

###

- target.under.test: UniProt Q7TQN8
- Sequence (Q7TQN8 whole entry): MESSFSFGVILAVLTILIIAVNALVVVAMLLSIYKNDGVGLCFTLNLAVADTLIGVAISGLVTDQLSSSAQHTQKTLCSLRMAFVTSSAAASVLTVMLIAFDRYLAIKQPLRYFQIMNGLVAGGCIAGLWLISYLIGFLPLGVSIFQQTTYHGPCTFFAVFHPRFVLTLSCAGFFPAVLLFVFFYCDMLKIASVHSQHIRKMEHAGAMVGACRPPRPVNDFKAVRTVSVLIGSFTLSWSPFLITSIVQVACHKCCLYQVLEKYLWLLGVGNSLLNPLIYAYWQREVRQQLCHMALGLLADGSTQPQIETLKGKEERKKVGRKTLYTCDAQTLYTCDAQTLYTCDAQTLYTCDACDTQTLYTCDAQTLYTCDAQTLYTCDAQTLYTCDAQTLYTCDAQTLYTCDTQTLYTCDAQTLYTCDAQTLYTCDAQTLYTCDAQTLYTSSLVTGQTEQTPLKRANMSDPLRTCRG
- measurement.description: Agonist activity at rat GPR119 by melanophore assay
pEC50: −log10 of the molar value.
Some molecules, each annotated with its measured pEC50.
observation.type: pEC50

In [3]: df
Out[3]:
                                   molecule  censoring_sign  endpoint_result
0  CC(C)(C)OC(=O)N1CCC([S+]([O-])c2ncnc3c2cnn3-c2ccc(S(C)(=O)=O)cc2)CC1 (centres undefined)               <             5.00
1  CC(C)OC(=O)N1CCC(Oc2ncnc3c(-c4ccc(S(C)(=O)=O)cc4)noc23)CC1               =             7.40
2  CC(C)(C)OC(=O)N1CCC(Oc2ncnc3c2nnn3-c2ccc(S(C)(=O)=O)cc2)CC1               =             7.38
3  CC(C)(C)OC(=O)N1CCC(Sc2ncnc3c2cnn3-c2ccc(S(C)(=O)=O)cc2)CC1               =             7.81
